Experiment: Volume of distribution in iv dosed human infant by HPLC
Type: ADME, organism-based
Settings: in vivo
Starred links: 1 amine or outer side, 2 acyl side, 3 side chain; linkers in the order of their positions; H or OH if unused. Positions of bridges follow the written chain, without caps; N, C: chain ends. Non-standard residues stand in square brackets, D forms with d. Residues, ends and D or L forms follow the SMILES beside them. *: point of attachment. hTyr(3S-OH,4S-OH,3'-OSO3H) = N[C@H](C(=O)O)[C@H](O)[C@@H](O)c1ccc(O)c(OS(=O)(=O)O)c1; Orn(4R-OH,5R-OH) = O=C([C@H](C[C@@H](O)[C@@H](O)N[*:3])N[*:1])[*:2]; Pro(3S-OH,4S-Me) = C[C@H]1CN[C@H](C(=O)O)[C@H]1O; X1 = CCCCCOc1ccc(-c2cc(-c3ccc(C(=O)*)cc3)no2)cc1; Gln(3R-OH) = NC(=O)C[C@@H](O)[C@H](N)C(=O)O; Hyp = O=C(O)[C@@H]1C[C@@H](O)CN1
Measured Quantity: Vd (L)

>  <Molecule>
CCCCCOc1ccc(-c2cc(-c3ccc(C(=O)N[C@H]4C[C@@H](O)[C@@H](O)NC(=O)[C@@H]5[C@@H](O)[C@@H](C)CN5C(=O)[C@H]([C@H](O)CC(N)=O)NC(=O)[C@H]([C@H](O)[C@@H](O)c5ccc(O)c(OS(=O)(=O)O)c5)NC(=O)[C@@H]5C[C@@H](O)CN5C(=O)[C@H]([C@@H](C)O)NC4=O)cc3)no2)cc1 [MICAFUNGIN] (X1-[Orn(4R-OH,5R-OH)]T[Hyp][hTyr(3S-OH,4S-OH,3'-OSO3H)][Gln(3R-OH)][Pro(3S-OH,4S-Me)]; lactam 1-C)

>  <Reported Result>
10.3

$$$$

Each recorded value in this set is attributed to ChEMBL document CHEMBL1255472.
